tested on: PDE4B1 (Homo sapiens, UniProt Q07343)
Construct: made in house; host or cells: SF21 insect cells (baculovirus; pCR-Bac vector)
Sequence (Q07343 whole entry): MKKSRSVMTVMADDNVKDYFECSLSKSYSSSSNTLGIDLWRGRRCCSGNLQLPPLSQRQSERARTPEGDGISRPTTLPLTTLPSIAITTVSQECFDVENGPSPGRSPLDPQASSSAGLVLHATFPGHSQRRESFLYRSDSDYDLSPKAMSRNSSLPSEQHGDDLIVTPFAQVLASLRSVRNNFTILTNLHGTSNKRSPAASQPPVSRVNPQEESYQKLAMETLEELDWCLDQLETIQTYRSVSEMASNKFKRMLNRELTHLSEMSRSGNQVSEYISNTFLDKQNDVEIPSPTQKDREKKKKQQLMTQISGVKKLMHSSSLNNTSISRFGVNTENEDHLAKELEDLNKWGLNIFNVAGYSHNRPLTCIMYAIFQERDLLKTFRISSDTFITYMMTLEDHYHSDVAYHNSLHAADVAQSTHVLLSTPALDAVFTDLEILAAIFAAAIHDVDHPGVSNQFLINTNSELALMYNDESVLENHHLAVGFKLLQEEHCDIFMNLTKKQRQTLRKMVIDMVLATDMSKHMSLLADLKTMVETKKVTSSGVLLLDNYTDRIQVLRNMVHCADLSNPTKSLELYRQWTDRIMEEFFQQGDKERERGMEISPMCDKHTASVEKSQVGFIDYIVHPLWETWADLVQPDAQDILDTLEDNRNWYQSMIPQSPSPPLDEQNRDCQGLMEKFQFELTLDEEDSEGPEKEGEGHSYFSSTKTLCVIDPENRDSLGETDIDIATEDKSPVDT
protocol summary: Inhibition of PDE4B1 activity (SPA, [3H]cAMP)
Type: biochemical
condition notes: recombinant PDE4B1 expressed in SF21 cells; 0.5 pM [sic] cAMP; values given as bins; read-out: PDE4B1 inhibitory values measured as −logIC50 (converted)
Each item that follows carries a reported IC50.

// below: answered molecules
>>> print(df.to_string())
                                 smiles_str         val
0  CCOc1cc2c(cc1OC)C(c1ccc(C(=O)N3CCC(n4c(=O)c5sc(-c6ccccc6)cc5n(Cc5nc(CC)co5)c4=O)CC3)cc1)=N[C@@H]1CCSC[C@H]21  1 to 10 nM
1  CCOc1cc2c(cc1OC)C(c1ccc(C(=O)N3CCC(n4c(=O)c5sc(-c6ccccc6)cc5n(Cc5ccn(CC)n5)c4=O)CC3)cc1)=N[C@@H]1CCSC[C@H]21  1 to 10 nM
2  CCOc1cc2c(cc1OC)C(c1cccc(C(=O)N3CCC(n4c(=O)c5sc(-c6ccc(F)cc6)cc5n(Cc5nnn(CC)n5)c4=O)CC3)c1)=N[C@@H]1CCSC[C@H]21     > 10 nM
3  CCOc1cc2c(cc1OC)C(c1ccc(C(=O)N3CCC(n4c(=O)c5sc(-c6ccccc6)cc5n(Cc5sccc5C)c4=O)CC3)cc1)=N[C@@H]1CCSC[C@H]21  1 to 10 nM

Please find the next molecule below.
Lookup: Need IC50, item CCOc1cc2c(cc1OC)C(c1cccc(C(=O)N3CCC(n4c(=O)c5sc(-c6cc(OC)ccc6OC)cc5n(Cc5nnn(CC)n5)c4=O)CC3)c1)=N[C@@H]1CCSC[C@H]21
Found: > 10 nM

====

Measured IC50 by item
tested on: PDE4B1 (Homo sapiens)
Construct: made in house; host or cells: SF21 insect cells (baculovirus; pCR-Bac vector)
protocol summary: Inhibition of PDE4B1 activity (SPA, [3H]cAMP)
Type: biochemical
condition notes: recombinant PDE4B1 expressed in SF21 cells; 0.5 pM [sic] cAMP; values given as bins; read-out: PDE4B1 inhibitory values measured as −logIC50 (converted)

In [3]: df
Out[3]:
                                 smiles_str              tested_on         val
0  CCn1nnc(Cn2c(=O)n(C3CCN(C(=O)c4ccc(C5=N[C@@H]6CCSC[C@@H]6c6cc(OC)c(OC)cc65)cc4)CC3)c(=O)c3sc(-c4ccccc4)cc32)n1  PDE4B1 (Homo sapiens)     > 10 nM
1  CCOc1cc2c(cc1OC)C(c1ccc(C(=O)N3CCC(n4c(=O)c5sc(-c6ccccc6)cc5n(Cc5csc(C)n5)c4=O)CC3)cc1)=N[C@@H]1CCSC[C@H]21  PDE4B1 (Homo sapiens)  1 to 10 nM

// moving on: another record for IC50
Lookup: Value lookup for IC50; key = CCCOCc1noc(Cn2c(=O)n(C3CCN(C(=O)c4ccc(C5=N[C@@H]6CCSC[C@@H]6c6cc(OCC)c(OC)cc65)cc4)CC3)c(=O)c3sc(-c4ccccc4)cc32)n1
Found: < 1 nM

====

tested on: PDE4B1 (Homo sapiens, UniProt Q07343)
Construct: made in house; host or cells: SF21 insect cells (baculovirus; pCR-Bac vector)
protocol summary: Inhibition of PDE4B1 activity (SPA, [3H]cAMP)
Format: biochemical
condition notes: recombinant PDE4B1 expressed in SF21 cells; 0.5 pM [sic] cAMP; values given as bins; read-out: PDE4B1 inhibitory values measured as −logIC50 (converted)
Below is a list of entries, each paired with its recorded IC50 value.

Examples with their reported IC50 follow.
In [3]: df
Out[3]:
                                 smiles_str               val
0  CCOc1cc2c(cc1OC)C(c1cccc(C(=O)N3CCC(n4c(=O)c5sc(-c6ccc7c(c6)OCO7)cc5n(Cc5nnn(CC)n5)c4=O)CC3)c1)=N[C@@H]1CCSC[C@H]21         > 0.01 µM
1  CCOc1cc2c(cc1OC)C(c1ccc(C(=O)N3CCC(n4c(=O)c5sc(-c6ccccc6)cc5n(Cn5nnc(CC)n5)c4=O)CC3)cc1)=N[C@@H]1CCSC[C@H]21  0.001 to 0.01 µM

Lookup: Name the reported IC50 value associated with the compound CCOc1cc2c(cc1OC)C(c1ccc(C(=O)N3CCC(n4c(=O)c5sc(-c6ccccc6)cc5n(Cc5cc(CC)no5)c4=O)CC3)cc1)=N[C@@H]1CCSC[C@H]21
Found: 0.001 to 0.01 µM

Lookup: Given the entry CCOc1cc2c(cc1OC)C(c1ccc(C(=O)N3CCC(n4c(=O)c5sc(-c6ccc7c(c6)OCO7)cc5n(Cc5nnn(CC)n5)c4=O)CC3)cc1)=N[C@@H]1CCSC[C@H]21 , report its measured IC50.
Found: 0.001 to 0.01 µM

Lookup: Endpoint output: IC50 of CCOc1cc2c(cc1OC)C(c1cccc(C(=O)N3CCC(n4c(=O)c5sc(-c6ccc(F)cc6OC)cc5n(Cc5nc(COC)no5)c4=O)CC3)c1)=N[C@@H]1CCSC[C@H]21 . Value?
Found: 0.001 to 0.01 µM

====

Entries and their measured IC50 follow.
tested on: PDE4B1 (Homo sapiens, UniProt Q07343)
Construct: made in house; host or cells: SF21 insect cells (baculovirus; pCR-Bac vector)
protocol summary: Inhibition of PDE4B1 activity (SPA, [3H]cAMP)
Format: biochemical
condition notes: recombinant PDE4B1 expressed in SF21 cells; 0.5 pM [sic] cAMP; values given as bins; read-out: PDE4B1 inhibitory values measured as −logIC50 (converted)

Completed entries (count: 3):
compound	IC50
CCOc1cc2c(cc1OC)C(c1ccc(C(=O)N3CCC(n4c(=O)c5sc(-c6ccc(F)cc6OC)cc5n(Cc5nnn(CC)n5)c4=O)CC3)cc1)=N[C@@H]1CCSC[C@H]21	1 to 10 nM
CCOc1cc2c(cc1OC)C(c1ccc(C(=O)N3CCC(n4c(=O)c5sc(-c6ccc(F)cc6)cc5n(Cc5nc(CC)no5)c4=O)CC3)cc1)=N[C@@H]1CCSC[C@H]21	1 to 10 nM
CCOc1cc2c(cc1OC)C(c1ccc(C(=O)N3CCC(n4c(=O)c5sc(-c6ccccc6)cc5n(Cc5nnn(CC)n5)c4=O)CC3)cc1)=NC1CC[S+]([O-])CC21 (single isomer, unassigned)	> 10 nM

Lookup: Recorded IC50 of CCOc1cc2c(cc1OC)C(c1ccc(C(=O)N3CCC(n4c(=O)c5sc(-c6ccccc6)cc5n(Cc5nc(C)cs5)c4=O)CC3)cc1)=N[C@@H]1CCSC[C@H]21 , please.
Found: 1 to 10 nM

Lookup: Name the recorded IC50 for CCOc1cc2c(cc1OC)C(c1ccc(C(=O)N3CCC(n4c(=O)c5sc(-c6ccccc6)cc5n(Cc5cnc(CC)o5)c4=O)CC3)cc1)=N[C@@H]1CCSC[C@H]21 .
Found: 1 to 10 nM

Lookup: Name the reported IC50 value associated with the compound CCOc1cc2c(cc1OC)C(c1ccc(C(=O)N3CCC(n4c(=O)c5sc(-c6ccccc6F)cc5n(Cc5nc(CC)no5)c4=O)CC3)cc1)=N[C@@H]1CCSC[C@H]21
Found: 1 to 10 nM

Lookup: Entry CCOc1cc2c(cc1OC)C(c1ccc(C(=O)N3CCC(n4c(=O)c5sc(-c6ccccc6)cc5n(Cc5ccc(CC)s5)c4=O)CC3)cc1)=N[C@@H]1CCSC[C@H]21 has what IC50?
Found: 1 to 10 nM

Lookup: Look up IC50: CCOc1cc2c(cc1OC)C(c1cccc(C(=O)N3CCC(n4c(=O)c5sc(-c6ccc(F)cc6OC)cc5n(Cc5nnn(CC)n5)c4=O)CC3)c1)=N[C@@H]1CCSC[C@H]21
Found: > 10 nM

Lookup: I'd like to know its IC50. The compound in question is CCOc1cc2c(cc1OC)C(c1ccc(C(=O)N3CCC(n4c(=O)c5sc(-c6ccccc6)cc5n(Cc5nnnn5COC)c4=O)CC3)cc1)=N[C@@H]1CCSC[C@H]21
Found: < 1 nM

Lookup: Endpoint output: IC50 of CCOc1cc2c(cc1OC)C(c1ccc(C(=O)N3CCC(n4c(=O)c5sc(-c6ccccc6)cc5n(Cc5nnn(COC)n5)c4=O)CC3)cc1)=N[C@@H]1CCSC[C@H]21 . Value?
Found: < 1 nM

Lookup: What value of IC50 has been recorded for this entry: CCOc1cc2c(cc1OC)C(c1ccc(C(=O)N3CCC(n4c(=O)c5sc(-c6ccccc6)cc5n(Cc5cnn(CC)c5)c4=O)CC3)cc1)=N[C@@H]1CCSC[C@H]21
Found: 1 to 10 nM
